# Papp at 5 h, 200 µM per record follows
- test_method_notes: Parallel artificial membrane permeability assay (PAMPA)
- Format: in vitro ADME
- applied_conditions: PBS, room temperature
- Protocol: Bioavailable drugs must permeate the cellular membranes of the lining of the digestive tract. To estimate the penetrability of exemplary compounds, the in vitro parallel artificial membrane permeability assay (PAMPA) was utilized. Test compounds must have a standard curve in the final read plate to determine partitioned concentration of each drug. […] Permeability and membrane retention were then calculated based on the following formulas: […]

# annotated cases, reported Papp at 5 h, 200 µM shown
CCC(C)CN1CC2N(Cc3ccc(OC(F)F)cc3)CCC(=O)N2[C@@H](C)C1=O (some centres unmarked) :: < 2 ×10⁻⁶ cm/s
CCC(C)CN1CC2N(Cc3ccc(O)nc3)CCC(=O)N2[C@@H](C)C1=O (some centres unmarked) :: > 10 ×10⁻⁶ cm/s
CCC(C)CN1CC2N(C(=O)c3ccc(C(F)(F)F)c(Cl)c3)CCC(=O)N2C(C)C1=O (centres unmarked) :: < 2 ×10⁻⁶ cm/s
CCC(C)CN1CC2N(C(=O)c3ccc(C(F)(F)F)cc3)CCC(=O)N2[C@@H](C)C1=O (some centres unmarked) :: > 2 ×10⁻⁶ cm/s
CCCCN1CC2N(C(=O)c3ccc(OC(F)F)cc3)CCC(=O)N2C(C)C1=O (centres unmarked) :: > 2 ×10⁻⁶ cm/s
CCC(C)CN1CC2N(Cc3ccc(F)cc3)CCC(=O)N2C(C)C1=O (centres unmarked) :: > 2 ×10⁻⁶ cm/s
CCC(C)CN1CC2N(Cc3ccc(C(F)(F)F)cc3)CCC(=O)N2[C@@H](C)C1=O (some centres unmarked) :: < 2 ×10⁻⁶ cm/s

Name the reported Papp at 5 h, 200 µM value associated with the molecule CCC(C)CN1CC2N(C(=O)c3ccc(F)cc3)CCC(=O)N2C(C)C1=O (centres unmarked)
> 2 ×10⁻⁶ cm/s

* * *

- test_method_notes: Non-specific protein binding (rapid equilibrium dialysis)
- Type: in vitro ADME, Sprague-Dawley rats
- applied_conditions: both sexes, Sprague-Dawley; rat brain homogenate, RED device, 4-hour incubation at 37° C.; read-out: Unbound Fraction Brain
observed_property: fraction unbound at 4 h

# annotated cases, reported fraction unbound at 4 h shown
CCC(C)CN1CC2N(Cc3ccc(OC(F)F)cc3)CCC(=O)N2[C@@H](C)C1=O (stereo partly shown) :: < 0.1
CCC(C)CN1CC2N(Cc3ccc(C(F)(F)F)cc3)CCC(=O)N2[C@@H](C)C1=O (stereo partly shown) :: < 0.1
CCC(C)CN1CC2N(C(=O)c3ccc(OC(F)F)cc3)CCC(=O)N2[C@@H](C)C1=O (stereo partly shown) :: 0.1 to 0.5
CCC(C)CN1CC2N(C(=O)c3ccc(C(F)(F)F)cc3)CCC(=O)N2[C@@H](C)C1=O (stereo partly shown) :: 0.1 to 0.5
CCC(C)CN1CC2N(C(=O)c3ccc(C(F)(F)F)c(Cl)c3)CCC(=O)N2C(C)C1=O (stereo not shown) :: 0.1 to 0.5

Name the reported fraction unbound at 4 h value associated with the compound CCC(C)CN1CC2N(Cc3ccc(O)nc3)CCC(=O)N2[C@@H](C)C1=O (stereo partly shown)
0.5 to 0.9

Name the reported fraction unbound at 4 h value associated with the compound C=CCCN1CC2N(C(=O)c3ccc(C(F)(F)F)cc3)CCC(=O)N2C(C)C1=O (stereo not shown)
> 0.9

Name the reported fraction unbound at 4 h value associated with the compound CCC(C)CN1CC2N(C(=O)c3ccc(F)cc3)CCC(=O)N2C(C)C1=O (stereo not shown)
0.1 to 0.5

Name the reported fraction unbound at 4 h value associated with the compound CC1C(=O)N(CC2CCC2)CC2N(C(=O)c3ccc(OC(F)F)cc3)CCC(=O)N12 (stereo not shown)
> 0.9

Name the reported fraction unbound at 4 h value associated with the compound CC1C(=O)N(CCC2CCC2)CC2N(C(=O)c3ccc(C(F)(F)F)cc3)CCC(=O)N12 (stereo not shown)
0.5 to 0.9
